As shown below, each of these molecules has a reported IC75 value.
# Species on record: Oryctolagus cuniculus
# ASSAY: The compound was evaluated for the inhibition of Na+-dependent [3H]taurocholate uptake into ileal brush border membrane vesicles in rabbit, by 75%
# Type: functional
MEASURED_PROPERTY: IC75 (µM)

INSERT INTO assay_data (molecule, operator_symbol, quantitative_readout) VALUES
  ('CC(CCC(=O)O)C1CC[C@H]2[C@@H]3[C@H](O)C[C@@H]4C[C@@H](NC(=O)CCC(C)C5CC[C@H]6[C@@H]7CC[C@@H]8C[C@H](O)CC[C@]8(C)[C@H]7CC[C@]56C)CC[C@]4(C)[C@H]3C[C@H](O)[C@]12C (some centres not stated)', '>', 250),
  ('C[C@H](CCC(=O)NCCS(=O)(=O)O)[C@H]1CC[C@H]2[C@@H]3[C@H](O)C[C@@H]4C[C@H](O)CC[C@]4(C)[C@H]3CC[C@]12C', '=', 61),
  ('CC(CCC(=O)N[C@H]1CC[C@@]2(C)[C@@H](C1)C[C@@H](O)[C@@H]1[C@@H]2C[C@H](O)[C@]2(C)C(C(C)CCC(=O)O)CC[C@@H]12)C1CC[C@H]2[C@@H]3[C@H](O)C[C@@H]4C[C@H](O)CC[C@]4(C)[C@H]3C[C@H](O)[C@]12C (some centres not stated)', '=', 84),
  ('C[C@H](CCC(=O)O)[C@H]1CC[C@H]2[C@@H]3[C@H](O)C[C@@H]4C[C@H](O)CC[C@]4(C)[C@H]3C[C@H](O)[C@]12C', '=', 152),
  ('CC(CCC(=O)O)C1CC[C@H]2[C@@H]3[C@H](O)C[C@@H]4C[C@@H](OCCNC(=O)CCC(=O)NCCCNC(=O)CCC(C)C5CC[C@H]6[C@@H]7[C@H](O)C[C@@H]8C[C@H](OC(c9ccccc9)c9ccccc9)CC[C@]8(C)[C@H]7C[C@H](O)[C@]56C)CC[C@]4(C)[C@H]3C[C@H](O)[C@]12C (some centres not stated)', '=', 30),
  ('CC(CCC(=O)O)C1CC[C@H]2[C@@H]3[C@H](O)C[C@@H]4C[C@@H](OCCNC(=O)CCC(C)C5CC[C@H]6[C@@H]7[C@H](O)C[C@@H]8C[C@H](OC(c9ccccc9)c9ccccc9)CC[C@]8(C)[C@H]7C[C@H](O)[C@]56C)CC[C@]4(C)[C@H]3C[C@H](O)[C@]12C (some centres not stated)', '>', 250),
  ('CC(CCC(=O)O)C1CC[C@H]2[C@@H]3[C@H](O)C[C@@H]4C[C@@H](OCCNC(=O)CCC(C)C5CC[C@H]6[C@@H]7CC[C@@H]8C[C@H](O)CC[C@]8(C)[C@H]7CC[C@]56C)CC[C@]4(C)[C@H]3C[C@H](O)[C@]12C (some centres not stated)', '>', 250);

Cited source: ChEMBL document CHEMBL1127680
